Measured melting point, listed per entry for reference.

Some compounds with recorded melting point:
1) NS(=O)(=O)c1ccc(NC(=O)c2nn(-c3ccc(Cl)cc3)ccc2=O)cc1 [10d]	310 to 312 °C
2) NS(=O)(=O)c1ccc(NC(=O)c2nn(-c3ccc(F)cc3)ccc2=O)cc1 [10b]	313 to 315 °C
3) Cc1ccc(O)c(-c2cc(C(=O)Nc3ccc(S(N)(=O)=O)cc3)[nH]n2)c1	297 to 299 °C

Then this compound:
Query (compound): `NS(=O)(=O)c1ccc(NC(=O)c2cc(-c3cc(Cl)ccc3O)n[nH]2)cc1` ; field requested: melting point 302 to 304 °C
